Molecular target: 5-LO isolated from guinea pig neutrophils (Cavia porcellus, UniProt A0A286X958)
Construct: 5-LO isolated from guinea pig neutrophils
Sequence (A0A286X958 1-674): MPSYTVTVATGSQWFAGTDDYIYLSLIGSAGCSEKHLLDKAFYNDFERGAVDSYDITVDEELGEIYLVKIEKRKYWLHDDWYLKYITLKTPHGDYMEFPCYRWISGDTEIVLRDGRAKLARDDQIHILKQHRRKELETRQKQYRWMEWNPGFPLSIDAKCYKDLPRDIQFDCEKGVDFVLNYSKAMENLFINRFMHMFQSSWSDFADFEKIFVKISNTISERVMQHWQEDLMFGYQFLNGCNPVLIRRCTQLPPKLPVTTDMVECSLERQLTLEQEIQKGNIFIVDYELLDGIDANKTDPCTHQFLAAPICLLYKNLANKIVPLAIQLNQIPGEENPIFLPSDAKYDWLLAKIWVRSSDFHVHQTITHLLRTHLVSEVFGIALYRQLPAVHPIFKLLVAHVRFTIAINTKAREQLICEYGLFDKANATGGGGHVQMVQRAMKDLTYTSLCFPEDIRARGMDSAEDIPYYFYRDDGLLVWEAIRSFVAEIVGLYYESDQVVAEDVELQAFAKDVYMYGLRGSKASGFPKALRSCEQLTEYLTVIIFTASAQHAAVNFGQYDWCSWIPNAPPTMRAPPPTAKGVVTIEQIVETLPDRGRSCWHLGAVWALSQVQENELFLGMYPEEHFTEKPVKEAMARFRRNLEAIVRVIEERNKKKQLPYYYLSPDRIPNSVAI
Test: Test (a): in vitro spectrophotometric enzyme assay, cell free system, 5-LO isolated from guinea pig neutrophils
Source text: a) An in vitro spectrophotometric enzyme assay system, which assesses the inhibitory properties of a test compound in a cell free system using 5-LO isolated from guinea pig neutrophils and as described by D. Aharony and R. L. Stein (J. Biol. Chem., 1986, 261(25), 11512-11519). This test provides a measure of the intrinsic inhibitory properties against soluble 5-LO in an extracellular environment.
QUANTITY: IC50 (µM)
Give the number; µM is assumed, so skip it.

Q. Please supply the value of reported IC50 for the item O=c1c2ccccc2[nH]n1Cc1cccc2ccccc12
A. 1.7

The measurements presented in this section are drawn from patent US5173496A.
